System: DNA sequence AATACT
Assay: Quantitative DNase I footprint titration, site AATACT
Type: binding
Settings: DNase I footprinting, pH 7.0, 22° C.
quantityMeasured: Association Constant, Ka (M⁻¹)
Quick reminder: number only, in M⁻¹, skip the unit.

| molecule | Association Constant, Ka [M⁻¹] |
| --- | --- |
| CN(C)CCCNC(=O)CCNC(=O)c1cc(NC(=O)c2cc(NC(=O)c3cc(NC(=O)c4nc(NC(=O)CCCNC(=O)c5cc(NC(=O)c6cc(NC(=O)c7ccc8nc(-c9nccn9C)[nH]c8c7)cn6C)cn5C)cn4C)cn3C)cn2C)cn1C | 1e+09 |
| CN(C)CCCNC(=O)CCNC(=O)c1cc(NC(=O)c2cc(NC(=O)c3cc(NC(=O)c4nc(NC(=O)CCCNC(=O)c5cc(NC(=O)c6cc(NC(=O)c7cc(NC(=O)c8nccn8C)cn7C)cn6C)cn5C)cn4C)cn3C)cn2C)cn1C [Compound A, reference compound] | 500000 |
| CN(C)CCCNC(=O)CCNC(=O)c1cc(NC(=O)c2cc(NC(=O)c3cc(NC(=O)c4nc(NC(=O)CCCNC(=O)c5cc(NC(=O)c6cc(NC(=O)c7cc(NC(=O)c8nsc(NCCCN(C)C)c8Cl)cn7C)cn6C)cn5C)cn4C)cn3C)cn2C)cn1C [B, reference compound] | 7e+09 |

Association Constant, Ka lookup needed for CN(C)CCCNC(=O)CCNC(=O)c1cc(NC(=O)c2cc(NC(=O)c3cc(NC(=O)c4nc(NC(=O)CCCNC(=O)c5cc(NC(=O)c6cc(NC(=O)c7ccc8nc(-c9nsc(Cl)c9Cl)[nH]c8c7)cn6C)cn5C)cn4C)cn3C)cn2C)cn1C , thanks. 1e+09

----------
Test system: S. aureus ATCC 27660
Experiment: MIC against drug-resistant bacteria, S. aureus ATCC 27660
Assay type: cell-based
Details: organism B = S. aureus ATCC 27660, methycillin resistant strain (MRSA)

| substanceSmiles | tgt | Minimum Inhibitoty Concentration (MIC) |
| --- | --- | --- |
| Cn1cc(NC(=O)c2sc3ccccc3c2Cl)cc1C(=O)Nc1cc(-c2nc3ccc(C(=O)NCCN4CCCCC4)cc3[nH]2)n(C)c1 | S. aureus ATCC 27660 | +++ (MIC ≦4) |
| CCN(CC)CCCNC(=O)c1ccc2nc(-c3cc(NC(=O)c4cc(NC(=O)c5cc6ccccc6cn5)cn4C)cn3C)[nH]c2c1 | S. aureus ATCC 27660 | +++ (MIC ≦4) |
| CCN(CC)CCNC(=O)c1ccc2nc(-c3cc(NC(=O)c4cc(NC(=O)c5sc6ccccc6c5Cl)cn4C)cn3C)[nH]c2c1 | S. aureus ATCC 27660 | +++ (MIC ≦4) |

----------
System: DNA sequence ATTACT
Test: Quantitative DNase I footprint titration, site ATTACT
Format: binding
Conditions: DNase I footprinting, pH 7.0, 22° C.
quantityMeasured: Association Constant, Ka (M⁻¹)
Quick reminder: number only, in M⁻¹, skip the unit.

| compound | Association Constant, Ka [M⁻¹] |
| --- | --- |
| CN(C)CCCNC(=O)CCNC(=O)c1cc(NC(=O)c2cc(NC(=O)c3cc(NC(=O)c4nc(NC(=O)CCCNC(=O)c5cc(NC(=O)c6cc(NC(=O)c7cc(NC(=O)c8nccn8C)cn7C)cn6C)cn5C)cn4C)cn3C)cn2C)cn1C [Compound A, reference compound] | 5e+08 |
| CN(C)CCCNC(=O)CCNC(=O)c1cc(NC(=O)c2cc(NC(=O)c3cc(NC(=O)c4nc(NC(=O)CCCNC(=O)c5cc(NC(=O)c6cc(NC(=O)c7ccc8nc(-c9nsc(Cl)c9Cl)[nH]c8c7)cn6C)cn5C)cn4C)cn3C)cn2C)cn1C [Compound I-9] | 5e+09 |
| CN(C)CCCNC(=O)CCNC(=O)c1cc(NC(=O)c2cc(NC(=O)c3cc(NC(=O)c4nc(NC(=O)CCCNC(=O)c5cc(NC(=O)c6cc(NC(=O)c7cc(NC(=O)c8nsc(NCCCN(C)C)c8Cl)cn7C)cn6C)cn5C)cn4C)cn3C)cn2C)cn1C [B, reference compound] | 7e+09 |

Association Constant, Ka lookup needed for CN(C)CCCNC(=O)CCNC(=O)c1cc(NC(=O)c2cc(NC(=O)c3cc(NC(=O)c4nc(NC(=O)CCCNC(=O)c5cc(NC(=O)c6cc(NC(=O)c7ccc8nc(-c9nccn9C)[nH]c8c7)cn6C)cn5C)cn4C)cn3C)cn2C)cn1C [Compound I-8] , thanks. 5e+09

----------
Tested on: S. aureus ATCC 27660
Assay: MIC against drug-resistant bacteria, S. aureus ATCC 27660
Assay type: cell-based
Settings: organism B = S. aureus ATCC 27660, methycillin resistant strain (MRSA)
quantityMeasured: Minimum Inhibitoty Concentration (MIC)

Some solved cases for reference:
| substanceSmiles | Minimum Inhibitoty Concentration (MIC) |
| --- | --- |
| CCN(CC)CCNC(=O)c1ccc2nc(-c3cc(NC(=O)c4cc(NC(=O)c5sccc5Cl)cn4C)cn3C)[nH]c2c1 | +++ (MIC ≦4) |
| Cn1cc(NC(=O)c2ccc3nc(-c4cc(NC(=O)c5sccc5Cl)cn4C)[nH]c3c2)cc1C(=O)NCCN1CCOCC1 | +++ (MIC ≦4) |
| CCOC(=O)c1ccc2nc(-c3cc(NC(=O)c4cc(NC(=O)c5ccc(F)cc5NCCN5CCCCC5)cn4C)cn3C)[nH]c2c1 | +++ (MIC ≦4) |
| Cn1cc(NC(=O)c2cc3ccccc3cn2)cc1C(=O)Nc1cc(-c2nc3ccc(C(=O)NCCN4CCC(O)CC4)cc3[nH]2)n(C)c1 | +++ (MIC ≦4) |

Query for S. aureus ATCC 27660: what Minimum Inhibitoty Concentration (MIC) does the record show for Cn1cc(NC(=O)c2ccc3nc(-c4cc(NC(=O)c5cc6ccccc6cn5)cn4C)[nH]c3c2)cc1C(=O)NCCN1CCCCC1 ? +++ (MIC ≦4)

Query for S. aureus ATCC 27660: what Minimum Inhibitoty Concentration (MIC) does the record show for C[C@@H]1CN(CCNC(=O)c2ccc3nc(-c4cc(NC(=O)c5cc(NC(=O)c6cc7ccccc7cn6)cn5C)cn4C)[nH]c3c2)C[C@H](C)O1 ? +++ (MIC ≦4)

Query for S. aureus ATCC 27660: what Minimum Inhibitoty Concentration (MIC) does the record show for Cn1cc(NC(=O)c2sccc2Cl)cc1C(=O)Nc1cc(-c2nc3ccc(C(=O)NCCN4CCCCC4)cc3[nH]2)n(C)c1 ? +++ (MIC ≦4)

Query for S. aureus ATCC 27660: what Minimum Inhibitoty Concentration (MIC) does the record show for Cn1cc(NC(=O)c2ccc3nc(-c4sccc4Cl)[nH]c3c2)cc1-c1nc2ccc(C(=O)NCCN3CCOCC3)cc2[nH]1 ? +++ (MIC ≦4)

Query for S. aureus ATCC 27660: what Minimum Inhibitoty Concentration (MIC) does the record show for Cn1cc(NC(=O)c2ccc(F)cc2F)cc1C(=O)Nc1cc(-c2nc3ccc(C(=O)NCCN4CCOCC4)cc3[nH]2)n(C)c1 ? +++ (MIC ≦4)

Query for S. aureus ATCC 27660: what Minimum Inhibitoty Concentration (MIC) does the record show for Cn1cc(NC(=O)c2sccc2Cl)cc1C(=O)Nc1cc(-c2nc3ccc(C(=O)NCCN4CCOCC4)cc3[nH]2)n(C)c1 ? +++ (MIC ≦4)

Query for S. aureus ATCC 27660: what Minimum Inhibitoty Concentration (MIC) does the record show for Cn1cc(NC(=O)c2ccc(Cl)cc2F)cc1C(=O)Nc1cc(-c2nc3ccc(C(=O)NCCN4CCSCC4)cc3[nH]2)n(C)c1 ? +++ (MIC ≦4)

Query for S. aureus ATCC 27660: what Minimum Inhibitoty Concentration (MIC) does the record show for Cn1cc(NC(=O)c2ccc3nc(-c4cc(NC(=O)c5cc6ccccc6cn5)cn4C)[nH]c3c2)cc1C(=O)NCCN1CCOCC1 ? +++ (MIC ≦4)

Query for S. aureus ATCC 27660: what Minimum Inhibitoty Concentration (MIC) does the record show for Cn1cc(NC(=O)c2ccc(Cl)cc2F)cc1C(=O)Nc1cc(-c2nc3ccc(C(=O)NCCN4CCCCC4)cc3[nH]2)n(C)c1 ? +++ (MIC ≦4)

Query for S. aureus ATCC 27660: what Minimum Inhibitoty Concentration (MIC) does the record show for CN(C)CCCNC(=O)c1ccc2nc(-c3cc(NC(=O)c4cc(NC(=O)c5cc6ccccc6cn5)cn4C)cn3C)[nH]c2c1 ? +++ (MIC ≦4)

Query for S. aureus ATCC 27660: what Minimum Inhibitoty Concentration (MIC) does the record show for CCOC(=O)c1ccc2nc(-c3cc(NC(=O)c4cc(NC(=O)c5ccc(F)cc5NCCN5CCSCC5)cn4C)cn3C)[nH]c2c1 ? +++ (MIC ≦4)

Query for S. aureus ATCC 27660: what Minimum Inhibitoty Concentration (MIC) does the record show for Cn1cc(NC(=O)c2ccc3nc(-c4cc(NC(=O)c5ccc(Cl)cc5F)cn4C)[nH]c3c2)cc1C(=O)NCCN1CCCCC1 ? +++ (MIC ≦4)

Query for S. aureus ATCC 27660: what Minimum Inhibitoty Concentration (MIC) does the record show for CCN(CC)CCNC(=O)c1ccc2nc(-c3cc(NC(=O)c4cc(NC(=O)c5cc6ccccc6cn5)cn4C)cn3C)[nH]c2c1 ? +++ (MIC ≦4)

Query for S. aureus ATCC 27660: what Minimum Inhibitoty Concentration (MIC) does the record show for Cn1cc(NC(=O)c2sccc2Cl)cc1C(=O)Nc1cc(-c2nc3ccc(C(=O)NCCN4CCSCC4)cc3[nH]2)n(C)c1 ? +++ (MIC ≦4)

Query for S. aureus ATCC 27660: what Minimum Inhibitoty Concentration (MIC) does the record show for Cn1cc(NC(=O)c2sc3ccccc3c2Cl)cc1C(=O)Nc1cc(-c2nc3ccc(C(=O)NCCN4CCSCC4)cc3[nH]2)n(C)c1 ? +++ (MIC ≦4)

Query for S. aureus ATCC 27660: what Minimum Inhibitoty Concentration (MIC) does the record show for Cn1cc(NC(=O)c2ccc(F)cc2F)cc1C(=O)Nc1cc(-c2nc3ccc(C(=O)NCCN4CCCCC4)cc3[nH]2)n(C)c1 ? +++ (MIC ≦4)
